I'd appreciate it if you could supply TGI values for the items below.
- Tested on: PC-3 prostate
- Experimental Details: NCI tumour cell line growth inhibition, 48 h

- Molecule: "C[C@@H](c1ccc2nccn2c1)n1nnc2ncc(-c3cnn(C)c3)nc21"
  Readout Type: "TGI"
  Endpoint Value: "> 100 µM"
- Molecule: "O=C(c1cccs1)c1c(C(F)(F)F)n([O-])c2ccc(C(F)(F)F)cc2[n+]1=O"
  Readout Type: "TGI"
  Endpoint Value: "0.259 µM"

Turning to the following molecule.
Given the entry CCOC(=O)CCC(NC(=O)c1ccc(N=Cc2nc3cc(C(F)(F)F)ccc3nc2-c2ccccc2)cc1)C(=O)OCC (stereo not drawn) , report its measured TGI. > 50 µM

----------
I'd appreciate it if you could supply GI50 values for the items below.
- Test system: UO-31 renal
- Experimental Details: NCI tumour cell line growth inhibition, 48 h

Working through the 3 molecules below one at a time, give GI50 for each.
1. OB([O][Hg][c]1ccccc1)[O][Hg][c]1ccccc1
2. Cn1cc(-c2ccc(=O)n(Cc3cccc(-c4ncc(OCCN5CCOCC5)cn4)c3)n2)cn1
3. COc1ccc(/C(=C/c2cc(OC)c(OC)c(OC)c2)[N+](=O)[O-])cc1

0.539 µM
64.8 µM
1.3 µM

Working through the 2 molecules below one at a time, give GI50 for each.
1. COc1ccc(N(C)c2nc(C)nc3ccccc23)cc1
2. C[C@H]1[C@H](OC(=O)CCC(=O)O)O[C@@H]2O[C@]3(C)CC[C@H]4[C@H](C)CC[C@@H]1[C@@]24OO3

1. 0.0103 µM
2. 0.398 µM

----------
- Tested on: CAKI-1 renal
- Experimental Details: NCI tumour cell line growth inhibition, 48 h
Readout Type: TGI

- Compound: "CCN(CC)CCNC(=O)c1ccc([N+](=O)[O-])cc1OC"
  TGI: "> 100 µM"
- Compound: "O=C(CCCN1CCC2(CC1)C(=O)NC(=O)N2c1ccccc1)c1ccc(F)cc1"
  TGI: "> 100 µM"

Turning to the following compound.
Given the entry COC(=O)c1cnc(=O)n(C2CC(O)C(CO)O2)c1 (stereo not drawn) , report its measured TGI. > 100 µM

----------
- System: OVCAR-4 ovarian
- Experimental Details: NCI tumour cell line growth inhibition, 48 h
Readout Type: TGI
Give the value; after it, write the unit.

- Input Smiles: "C/C(=N\\NC(=S)Nc1ccc(C(=O)O)cc1)c1ccccn1"
  Target Entity: "OVCAR-4 ovarian"
  Endpoint Value: "29.5 µM"
- Input Smiles: "CCOC(=O)C1(Cc2ccccc2)Cc2cc3c(cc2C1)CCC3"
  Target Entity: "OVCAR-4 ovarian"
  Endpoint Value: "98.4 µM"

Turning to the following compound.
Given the entry `O=S(=O)(c1cc(Cl)ccc1Cl)N1CCN(c2ccc(Cl)c(Cl)c2)CC1` , report its measured TGI. 32.4 µM

----------
- Tested on: TK-10 renal
- Experimental Details: NCI tumour cell line growth inhibition, 48 h
Readout Type: TGI

Would you please look over these solved cases?
- Compound: "O=C1C2=C(c3ccccc31)C(c1ccc(Cl)cc1)N1C(=O)CCSC1=N2 (centres undefined)"
  Endpoint Value: "> 100 µM"
- Compound: "Cn1nc(-c2ccccc2NC(=O)C(F)(F)F)c(=O)n(C)c1=S"
  Endpoint Value: "> 100 µM"
- Compound: "C[C@H](CCC1=NCCN1)[C@H]1CC[C@H]2[C@@H]3[C@H](O)C[C@@H]4C[C@H](O)CC[C@]4(C)[C@H]3CC[C@]12C"
  Endpoint Value: "26.7 µM"

Turning to the following compound.
So what TGI did `C/C(=N\NC(=S)Nc1ccc(C(=O)O)cc1)c1ccccn1` get with TK-10 renal? > 100 µM
